Test: Tested for binding affinity against delta1 opioid receptor using [3H]-DPDPE as a radioligand in the guinea pig brain membranes.
Would you kindly list pKi for each of these molecules?
Answer as the number alone; pKi is minus log10 of concentration in mol/L.

Using the record for O=C(CBr)Nc1cccc(Cn2c3c(c4ccccc42)C[C@@]2(O)C4Cc5ccc(O)c6c5C2(CCN4CC2CC2)[C@H]3O6)c1 (some centres undefined) , report its pKi.
10.72

Oc1ccc2c3c1O[C@H]1c4c(c5ccccc5n4Cc4cccc(N=C=S)c4)C[C@@]4(O)C(C2)N(CC2CC2)CCC314 (some centres undefined) ?
8.38

Next molecule: Oc1ccc2c3c1O[C@H]1c4c(c5ccccc5n4Cc4ccc(N=C=S)cc4)C[C@@]4(O)C(C2)N(CC2CC2)CCC314 (some centres undefined)
8.28

Same read-out for Oc1ccc2c3c1O[C@H]1c4c(c5ccccc5n4Cc4ccccc4N=C=S)C[C@@]4(O)C(C2)N(CC2CC2)CCC314 (some centres undefined) ?
8.70

====

Assay: Tested for binding affinity against delta2 opioid receptor using [3H]DSLET as a radioligand in the guinea pig brain membranes.
Give measured Ki for each item. Keep answers brief.
Please reply with the bare figure in nM and do not write the unit itself.

Tell me the measured Ki of O=C(CBr)Nc1cccc(Cn2c3c(c4ccccc42)C[C@@]2(O)C4Cc5ccc(O)c6c5C2(CCN4CC2CC2)[C@H]3O6)c1 (some centres undefined) , please.
0.038

Next entry: Oc1ccc2c3c1O[C@H]1c4c(c5ccccc5n4Cc4ccccc4N=C=S)C[C@@]4(O)C(C2)N(CC2CC2)CCC314 (some centres undefined)
3.6

Let us now turn to Oc1ccc2c3c1O[C@H]1c4c(c5ccccc5n4Cc4ccc(N=C=S)cc4)C[C@@]4(O)C(C2)N(CC2CC2)CCC314 (some centres undefined)
5

Next molecule up: Oc1ccc2c3c1O[C@H]1c4c(c5ccccc5n4Cc4cccc(N=C=S)c4)C[C@@]4(O)C(C2)N(CC2CC2)CCC314 (some centres undefined)
7
